Values were extracted from patent EP3782997A1.

A collection of molecules and their measured IC50
TARGET_OR_SYSTEM: hENPP2 (Homo sapiens, UniProt Q13822)

Completed entries (count: 2):
MOLECULE | IC50
Cc1cc(C)cc(Nc2ncc3c(n2)CN(C2CCN(C(=O)c4cc5nn[nH]c5cc4F)C(C)(C)C2)C3)c1 (centres unmarked) | 0.01 to 100 nM
Cc1cc(C)cc(Nc2ncc3c(n2)CCN(C2CCN(C(=O)c4ccc5[nH]c(=O)oc5c4)C2)C3)c1 (centres unmarked) | 0.01 to 100 nM

Note to self: IC50 of "C[C@@H]1C[C@H](N2Cc3cnc(Nc4ccc(F)cc4)nc3C2)CCN1C(=O)c1ccnc(NS(C)(=O)=O)c1" with hENPP2 (Homo sapiens, UniProt Q13822) was 0.01 to 100 nM

IC50 of "C[C@@H]1C[C@H](N2Cc3cnc(Nc4ccc(F)cc4)nc3C2)CCN1C(=O)c1c[nH]nn1" , assay on hENPP2 (Homo sapiens, UniProt Q13822), is > 1000 nM

IC50 of Cc1cc(C)cc(Nc2ncc3c(n2)CCN(C2CN(C(=O)c4ccc5nn[nH]c5c4)CC2C)C3)c1 (centres unmarked) , assay on hENPP2 (Homo sapiens, UniProt Q13822), is 0.01 to 100 nM

Query "N#Cc1ccc(Nc2ncc3c(n2)CN(C2CN(C(=O)c4ccc5[nH]nnc5c4)C2)C3)cc1" on hENPP2 (Homo sapiens, UniProt Q13822); IC50 returned: 0.01 to 100 nM

"COc1cccc(Nc2ncc3c(n2)CN([C@H]2CCN(C(=O)c4ccc5[nH]nnc5c4)[C@H](C)C2)C3)c1" tested on hENPP2 (Homo sapiens, UniProt Q13822) gave IC50: 100 to 500 nM

GET /values?item= Cc1cc(C)cc(Nc2ncc3c(n2)CCN(C2CCN(C(=O)c4ccc5[nH]nnc5c4)C2)C3)c1 (centres unmarked) &system= hENPP2 (Homo sapiens, UniProt Q13822) returns IC50: 100 to 500 nM

* * *

TARGET_OR_SYSTEM: hENPP2 (Homo sapiens)
MEASUREMENT_TYPE: IC50

Example cases with answers are listed next.
COMPOUND | MEASUREMENT_TYPE | READOUT_VALUE
O=C(c1ccc2[nH]c(=O)oc2c1)N1CC(N2CCc3nc(Nc4cc(Cl)cc(C(F)(F)F)c4)ncc3C2)C1 [compound 14] | IC50 | 0.01 to 100 nM
COc1cc2[nH]nnc2cc1C(=O)N1CC[C@H](N2Cc3cnc(Nc4cc(C)cc(C)c4)nc3C2)[C@H](C)C1 (racemic) [compound 119] | IC50 | 0.01 to 100 nM
Cc1cc(C)cc(Nc2ncc3c(n2)CN(C2CCN(C(=O)c4ccc5oc(=O)[nH]c5c4)CC2)C3)c1 [Cpd 118] | IC50 | > 1000 nM
Cc1cc(C)cc(Nc2ncc3c(n2)CN(C2CC4CCC(C2)N4C(=O)c2ccc4[nH]nnc4c2)C3)c1 (centres unmarked) [compound 114] | IC50 | 100 to 500 nM

Input Cc1cc(C)cc(Nc2ncc3c(n2)CCN(C2CN(C(=O)c4ccc5[nH]c(=O)oc5c4)C2)C3)c1 [Cpd 1] . Output IC50: 0.01 to 100 nM

* * *

Collected IC50 values appear next to each entry.
TARGET_OR_SYSTEM: hENPP2 (Homo sapiens)

COMPOUND | READOUT_VALUE
Cc1cc(C)cc(Nc2ncc3c(n2)CN(C2CCN(C(=O)c4ccnc(NS(C)(=O)=O)c4)CC2)C3)c1 | 0.01 to 100 nM
Cc1cc(Nc2ncc3c(n2)CN(C2CN(C(=O)c4ccc5nn[nH]c5c4)C2)C3)cc(C(F)(F)F)c1 | 0.01 to 100 nM
C[C@@H]1C[C@H](N2Cc3cnc(Nc4ccc(OC(F)(F)F)cc4)nc3C2)CCN1C(=O)c1ccc2[nH]nnc2c1 (single isomer, unassigned) | 0.01 to 100 nM

The recorded IC50 for Cc1cc(C)cc(Nc2ncc3c(n2)CN([C@H]2CCN(C(=O)c4c[nH]nn4)C[C@H]2C)C3)c1 (racemic) is 0.01 to 100 nM

Sample Cc1cc(C)cc(Nc2ncc3c(n2)CN(C2[C@@H]4C[C@H]2CN(C(=O)c2ccc5[nH]nnc5c2)C4)C3)c1 (stereo partly drawn) ; IC50 observed: 0.01 to 100 nM

Quick note, IC50 for "Cc1cc(C)cc(Nc2ncc3c(n2)CN([C@@H]2CCN(C(=O)c4cccc(C(=O)O)c4)[C@H](C)C2)C3)c1" landed at > 1000 nM
